- System: HBsAg in HepG2.2.15 cells
- protocolText: HBsAg assay: inhibition of HBsAg in HepG2.2.15 cells (chemiluminescence immunoassay of supernatant)
- Format: cell-based, hepatitis B virus
- conditionDetails: Hepatitis B virus, HepG2.2.15, 144 h, read-out: sAg EC50, HepG2.2.15 cells, supernatant collected at day 6 after exposure, HBsAg CLIA
- Description: Inhibition of HBsAg was determined in HepG2.2.15 cells. Cells were maintained in culture medium containing 10% fetal calf serum, […], Glutamine, penicillin/streptomycin. Cells were seeded in 96-well collagen-coated plate at a density of 30,000 cells/well. Serially diluted compounds were added to cells next day at the final DMSO concentration of 0.5%. Cells were incubated with compounds for 2-3 days, after which medium was removed. […]
Would you mind telling me the reported pEC50 of each entry?
Give bare numbers, as −log10 of the molar value.

Please review the entries below; each comes with its answer.
molecule	measurementTarget	assayMetric	val
O=c1[nH]cccc1-c1nccc(N2CCc3cc(F)c(F)cc3C2)n1	HBsAg in HepG2.2.15 cells	pEC50	4.34
Fc1cnc(-c2ncccn2)nc1N1CC2CCC1c1ccccc12 (stereo not shown)	HBsAg in HepG2.2.15 cells	pEC50	6.15
CCC1c2ccc(F)c(F)c2OCCN1c1ccnc(-c2ncccn2)n1 (stereo not shown)	HBsAg in HepG2.2.15 cells	pEC50	4.55
CCC1c2cc(F)c(OC)cc2CN1c1nc(-c2ncccn2)ncc1F (stereo not shown)	HBsAg in HepG2.2.15 cells	pEC50	8.30
COc1cc2c(cc1OC)C1CCC2N1c1nc(-c2ncccn2)ncc1F	HBsAg in HepG2.2.15 cells	pEC50	6.00
CCC1c2cc(F)c(OC)cc2CCN1c1ccnc(C(N)=O)n1 (stereo not shown)	HBsAg in HepG2.2.15 cells	pEC50	4.85

Answer for every listed entry: what is its pEC50? The entries follow.
1. CCC1Cc2ccccc2CN1c1ccnc(-c2ncccn2)n1 (stereo not shown)
2. CC1c2ccccc2CCN1c1cnc(-c2ncccn2)nc1 (stereo not shown)
3. CCC1c2cc(OC)c(F)cc2CN1c1ccnc(-c2ncccn2)n1 (stereo not shown) [Example 76]
4. CC1CN(c2ccnc(-c3ncccn3)n2)Cc2ccccc21 (stereo not shown)

OUTPUT:
1: 5.64; 2: 5.85; 3: 6.92; 4: 5.96

* * *

- Tested on: HBsAg in HepG2.2.15 cells
- protocolText: HBsAg assay: inhibition of HBsAg in HepG2.2.15 cells (chemiluminescence immunoassay of supernatant)
- Format: cell-based, hepatitis B virus
- conditionDetails: read-out: sAg EC50; HepG2.2.15 cells, supernatant collected at day 6 after exposure, HBsAg CLIA
Assignment: determine reported EC50 for the given compounds.
Answers are plain numbers, in nM.

These solved cases illustrate the format of a correct answer.
compound	val
CCC1c2cc(F)c(OC)cc2CN1c1nc(-c2ncccn2)ncc1C (single isomer, unassigned) [Example 69]	59
CCC1c2cc(F)c(OC)cc2CN1c1cnc(C(=O)Nc2ccccn2)nc1 (single isomer, unassigned) [Example 108]	560
CCC1c2ccc(F)c(F)c2CCN1c1ccnc(-c2ncccn2)n1 (single isomer, unassigned) [Example 41]	2600

Hey, can you go through the list below and give me EC50 for every item?
1. CCC1c2ccccc2CCN1c1cnc(-c2ncccn2)nc1 (single isomer, unassigned) [Example 11]
2. CCC1c2cc(F)c(OC)cc2CN1c1nc(-c2ncccn2)ncc1-c1ccccc1 (single isomer, unassigned) [Example 66]
3. CCC1c2cc(F)c(F)cc2CN1c1cnc(C(=O)O)nc1 (single isomer, unassigned) [Example 116]
4. CCC1c2c(OC)ccc(F)c2CCN1c1ccnc(-c2ncccn2)n1 (single isomer, unassigned) [Example 44]

OUTPUT:
[1400, 1000, 3000, 7000]

* * *

So I've got a bunch of compounds here, and I need their log10 of EC50 values.
- System: HBsAg in HepG2.2.15 cells
- protocolText: HBsAg assay: inhibition of HBsAg in HepG2.2.15 cells (chemiluminescence immunoassay of supernatant)
- Assay type: cell-based, hepatitis B virus
- conditionDetails: Hepatitis B virus, HepG2.2.15, 144 h, read-out: sAg EC50, HepG2.2.15 cells, supernatant collected at day 6 after exposure, HBsAg CLIA
// units: nM (pre-log); metric: EC50; scale: log10

Some entries whose results are on file:
compound	val
CCC1c2ccccc2CCN1c1cnc2c(ccc3cccnc32)c1 (stereo not drawn)	3.08
COc1cc2c(cc1OC)C1CCC2N1c1nc(-c2ncccn2)ncc1C	3.30
CC1c2ccc(F)c(F)c2CCN1c1cnc2c(ccc3cccnc32)c1 (stereo not drawn)	2.64

Below are 3 compounds. Give each one its log10 of EC50.
1. CCC1c2ccc(OC)c(OC)c2CCN1c1cnc(-c2ncccn2)nc1 (stereo not drawn)
2. CC1CN(c2cnc(-c3ncccn3)nc2)C(=O)c2ccccc21 (stereo not drawn)
3. CCC1c2ccc(F)c(F)c2CCN1c1ccnc(-c2ncccn2)n1 (stereo not drawn)

OUTPUT:
1: 2.26; 2: 3.96; 3: 2.77

* * *

Can you tell me EC50 for the items I'm about to list?
- Tested on: HBsAg in HepG2.2.15 cells
- protocolText: HBsAg assay: inhibition of HBsAg in HepG2.2.15 cells (chemiluminescence immunoassay of supernatant)
- Type: cell-based, hepatitis B virus
- conditionDetails: Hepatitis B virus, HepG2.2.15, 144 h, read-out: sAg EC50, HepG2.2.15 cells, supernatant collected at day 6 after exposure, HBsAg CLIA
Answers are plain numbers, in nM.

compound	measurementTarget	unitsText	EC50
CCC1c2cc(OC)c(OC)cc2CN1c1nc(-c2ncccn2)nc2scnc12 (stereo not shown)	HBsAg in HepG2.2.15 cells	nM	200

Need EC50 for each of these compounds.
1. c1cnc(-c2ncc(N3CC4CCC3c3ccccc34)cn2)nc1 (stereo not shown)
2. c1cnc(-c2nccc(N3CC4CCC3c3ccccc34)n2)nc1 (stereo not shown)
3. CCC1c2ccccc2CCN1c1cnc(-c2ncccn2)nc1 (stereo not shown)
4. CCC1c2ccc(F)c(F)c2CCN1c1cnc(C(=O)O)nc1 (stereo not shown)
5. CCC1c2c(OC)ccc(F)c2CCN1c1cnc(-c2ncccn2)nc1 (stereo not shown)
6. c1cnc(-c2nccc(N3CCc4ccccc4C3)n2)nc1
7. c1cnc(-c2nccc(N3CC4CC3c3ccccc34)n2)nc1 (stereo not shown)

OUTPUT:
32000
6000
250
2000
620
8500
5000

* * *

- Test system: HBsAg in HepG2.2.15 cells
- protocolText: HBsAg assay: inhibition of HBsAg in HepG2.2.15 cells (chemiluminescence immunoassay of supernatant)
- Assay type: cell-based, hepatitis B virus
- conditionDetails: Hepatitis B virus, HepG2.2.15, 144 h, read-out: sAg EC50, HepG2.2.15 cells, supernatant collected at day 6 after exposure, HBsAg CLIA
assayMetric: pEC50
Answers are plain numbers, as −log10 of the molar value.

Use these answered entries as a reference point.
compound	pEC50
c1cnc(-c2ncc(N3CC4CC3c3ccccc34)cn2)nc1 (centres unmarked)	4.57
Fc1cc(F)c2c(c1)CN(c1cnc(-c3ncccn3)nc1)CC2	5.72
Cc1cnc(-c2ncccn2)nc1N1C2CCC1c1ccccc12	5.52
FC(F)(F)c1cccc2c1CN(c1cnc(-c3ncccn3)nc1)C2	4.60

For the next question, use this compound.
Lab note: measured pEC50 of CCC1c2cc(F)c(F)cc2CN1c1nc(-c2ncccn2)ncc1Cl (centres unmarked) was 7.52
